- method-summary: chemical genetic growth profiling, strain panel (AID 1159580);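 further: tested at 20 µM; growth read once vehicle control cultures reached saturation at 30 °C; 1 = growth at the plate median or of vehicle wells; lower values mean less growth of the strain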
- applied-conditions: S. cerevisiae deletion strains, growth OD, locus YDR388W, active compounds read low
About 2,000 (36%) of roughly 5,500 compounds were called active. About 18% were inconclusive and are not listed. Some of the results follow. Where a SMILES comes first, the peptide text is derived from it.
reported-metric: normalized growth
Numbers only.

Worked set:
molecule	normalized growth
CC(=O)O[C@H]1C[C@@]2(C)[C@@H](C[C@@H](O)C3[C@]2(C)CC[C@H]2[C@H](C)[C@H](O)CC[C@]32C)/C1=C(/CCC=C(C)C)C(=O)O (some centres not stated)	1.04
NC(N)=NCCN1CCCCCCC1	1.02
NC1(C(=O)O)CCC1	0.988
COC1C=CC23c4cc5c(cc4CN(CC2O)[C@@H]3C1)OCO5 (some centres not stated)	1

Would you mind listing normalized growth for each of the following molecules?
1. CC(=O)C1CCC2C3CCC4C[C@H](O)CCC4(C)C3C[C@H](O)C12C (some centres not stated)
2. CC(=O)N[C@@H](CC(=O)O)C(=O)N[C@@H](CCC(=O)O)C(=O)O (Ac-Asp-Glu-OH)
3. O=NN(CCCl)C(=O)NCCCl
4. COC(=O)[C@@H]1OC(=O)C2OC23[C@@]1(C)CCC1[C@@]2(C)CCC(=O)C(C)(C)C2C[C@@H](OC(C)=O)[C@]13C (some centres not stated)
5. NC1(C(=O)O)CCCC1
6. CC(=O)C1CC[C@H]2C3CC[C@H]4C[C@H](O)CC[C@]4(C)C3CC[C@]12C (some centres not stated)
7. C[C@]12CCC3C(CC[C@H]4C[C@H](O)CC[C@]34C)C1CC[C@@H]2O (some centres not stated)

1: 1.01; 2: 0.989; 3: 0.983; 4: 1.01; 5: 0.998; 6: 0.994; 7: 0.994

Item under review: CC1CCC(NC(=O)N(CCCl)N=O)CC1 (configuration not stated) . Reported normalized growth?
1.01

----------
I'd be grateful if you could share measured normalized growth for these entries.
- method-summary: chemical genetic growth profiling, strain panel (AID 1159580)
- applied-conditions: S. cerevisiae deletion strains, growth OD, locus YPR163C, strain tif3, active compounds read low
Screen size: about 5,500 compounds; about 2,000 (36%) were called active. Roughly 18% stayed inconclusive and do not appear here. Some of the results follow.
Numbers only.

Worked set:
compound	endpoint-value
COc1cc2c(cc1OC)C1(O)C(=O)c3ccc(O)c(C(=O)O)c3OC1CO2 (stereo unspecified)	0.997
NC1(C(=O)O)CC1	1.03
COc1ccc2c(c1)OCC(Cc1ccc(OC)c(O)c1)C2=O (stereo unspecified)	0.842

Would you mind listing normalized growth for each of the following compounds?
1. CCC(=O)OC1[C@@H]2CC3=C4CC(=O)O[C@@H](c5ccoc5)[C@]4(C)CCC3[C@@](C)(C2=O)[C@@H](CC(=O)OC)C1(C)C (stereo partly specified)
2. NC1(C(=O)O)CCC1
3. COc1ccc(-c2cc(=O)c3c(OC)cc(OC)cc3o2)cc1
4. COc1cc(OC)c2c(=O)cc(-c3ccccc3)oc2c1
5. NCCCNCCSP(=O)(O)O

1.01
0.996
0.971
0.785
0.986

----------
- method-summary: chemical genetic growth profiling, strain panel (AID 1159580);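 further: tested at 20 µM; growth read once vehicle control cultures reached saturation at 30 °C; 1 = growth at the plate median or of vehicle wells; lower values mean less growth of the strain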
- applied-conditions: S. cerevisiae deletion strains, growth OD, locus YNL224C, strain SQS1, active compounds read low
Screen size: about 5,500 compounds; about 2,000 (36%) were called active. About 18% were inconclusive and are not listed. Some of the results follow.
reported-metric: normalized growth

>>> df
                       item_smiles    reported_metric  endpoint_value
0  N.N.O=C(O)C1(C(=O)O)CCC1.[Pt+2]  normalized growth    1 (inactive)

Would you mind listing normalized growth for each of the following molecules?
1. COc1ccccc1N1CCN(CCN2C(=O)CC3(CCCC3)CC2=O)CC1
2. NC1(C(=O)O)CC1
3. NC1(C(=O)O)CCCCC1
4. C[N+]1(C)CCc2cc3c(cc2[C@H]1[C@@H]1OC(=O)c2c1ccc1c2OCO1)OCO3
5. CC1(C)C(=O)N(CCN2CCC(C(=O)c3ccc(F)cc3)CC2)c2ccccc21

["1 (inactive)", "1.01 (inactive)", "0.98 (inactive)", "0.994 (inactive)", "1.02 (inactive)"]

----------
- method-summary: chemical genetic growth profiling, strain panel (AID 1159580);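 further: tested at 20 µM; growth read once vehicle control cultures reached saturation at 30 °C; 1 = growth at the plate median or of vehicle wells; lower values mean less growth of the strain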
- applied-conditions: S. cerevisiae deletion strains, growth OD, locus YNL071W, strain lat1
The whole screen tested about 5,500 compounds, of which about 2,000 (36%) were called active. Inconclusive results (about 18%) are left out. Cut-off read from the data, not from the text of the source: active = normalized growth mostly below about 0.91 (no sharp cut-off); inconclusive = no clear call, values can overlap the other calls; inactive = mostly above about 0.92. The list shows a part of the results.
Output constraint: value belongs to 1 (yes) (active), 0 (no) (inactive)

Sample answers from the record:
In [3]: df
Out[3]:
                                   molecule  assigned_class
0  C[C@@H]1CC2C3CCC4=CC(=O)C=C[C@]4(C)[C@@]3(F)[C@@H](O)C[C@]2(C)[C@@]1(O)C(=O)CO (stereo partly specified)          0 (no)
1  Cc1cc(/C=C/c2ccc3cc(N(C)C)ccc3[n+]2C)c(C)n1-c1ccccc1         1 (yes)

Check the results log: what was the call for CC(C)=CC1C(C(=O)OCc2cccc(Oc3ccccc3)c2)C1(C)C (stereo unspecified) ?
0 (no)

Next molecule: `Cc1cc(CC(=O)O)n(C)c1C(=O)c1ccc(Cl)cc1`
0 (no)

Next molecule: Clc1ccc(COC(Cn2ccnc2)c2ccc(Cl)cc2Cl)c(Cl)c1 (stereo unspecified)
1 (yes)

Next molecule: Clc1ccc(CSC(Cn2ccnc2)c2ccc(Cl)cc2Cl)cc1 (stereo unspecified)
1 (yes)

Next molecule: `Clc1ccc(CO/N=C(/Cn2ccnc2)c2ccc(Cl)cc2Cl)c(Cl)c1`
1 (yes)

Next molecule: `COc1cc(NS(C)(=O)=O)ccc1Cc1c2ccccc2nc2ccccc12`
0 (no)

Next molecule: `O=C1CCCN1CC#CCN1CCCC1`
0 (no)

Next molecule: `NC(N)=NCCCCN=C(N)N`
0 (no)

Next molecule: Clc1ccc(COC(Cn2ccnc2)c2ccc(Cl)cc2Cl)cc1 (stereo unspecified)
1 (yes)

----------
- method-summary: chemical genetic growth profiling, strain panel (AID 1159580);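 further: tested at 20 µM; growth read once vehicle control cultures reached saturation at 30 °C; 1 = growth at the plate median or of vehicle wells; lower values mean less growth of the strain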
- applied-conditions: S. cerevisiae deletion strains, growth OD, locus YAL030W, strain snc1, active compounds read low
Screen size: about 5,500 compounds; about 2,000 (36%) were called active. About 18% were inconclusive and are not listed. The list shows a part of the results.
I'd be grateful if you could share measured normalized growth for these entries.
Answers are plain numbers.

Worked set:
compound	normalized growth
CC1(C)N([O-])[N+](=O)C1(C)Br (stereo unspecified)	1
NCC[C@@H](O)C(=O)N[C@@H]1C[C@H](N)[C@@H](O[C@H]2O[C@H](CN)[C@@H](O)[C@H](O)[C@H]2O)[C@H](O)[C@H]1O[C@H]1O[C@H](CO)[C@@H](O)[C@H](N)C1O (stereo partly specified)	1.04
CC[C@@H]1OC(=O)C[C@@H](O)[C@H](C)[C@@H](O[C@@H]2O[C@H](C)[C@@H](O)[C@H](N(C)C)[C@H]2O)[C@@H](CCN2C[C@H](C)C[C@H](C)C2)C[C@@H](C)C(=O)/C=C/C(C)=C\[C@@H]1CO[C@@H]1O[C@H](C)[C@@H](O)[C@@H](OC)[C@H]1OC	0.996
CN1CCC[C@@H]1CCO[C@](C)(c1ccccc1)c1ccc(Cl)cc1	1
C=C1C(=O)[C@]23[C@H](O)[C@H]1CC[C@H]2[C@@]12CO[C@]3(O)[C@H](O)[C@@H]1C(C)(C)CC[C@@H]2O	1

Would you mind listing normalized growth for each of the following compounds?
1. COC(=O)[C@H](c1ccccc1Cl)N1CCc2sccc2C1
2. O=C(O)COc1ccc(Cl)cc1Cl
3. CC1[C@H](C)OC(=O)CC(O)CC(O)CC(O)CCC(O)C(O)C[C@]2(O)CC(O)C(C(=O)O)C(CC(OC3O[C@H](C)[C@@H](O)[C@H](N)[C@@H]3O)/C=C/C=C/C=C/C=C/CC/C=C/C=C/[C@H](C)[C@H]1O)O2 (stereo partly specified)
4. COc1ccnc(CS(=O)c2nc3ccc(OC(F)F)cc3[nH]2)c1OC (stereo unspecified)

1. 0.982
2. 0.988
3. 0.824
4. 1.02

Would you mind listing normalized growth for each of the following compounds?
1. O=C(O)CCC1NCC2CC1CN1CCCCC21 (stereo unspecified)
2. O=C(O)C(O)C(O)C(=O)O (stereo unspecified)
3. O=C(O)[C@@H](S)[C@@H](S)C(=O)O
4. Clc1ccc(CSC(Cn2ccnc2)c2ccc(Cl)cc2Cl)cc1 (stereo unspecified)
5. C[C@@H]1CC[C@H]2C(C)(C)C3CC12CC[C@@]3(C)O (stereo partly specified)
6. CC(C)=CC1C(C(=O)OCc2cccc(Oc3ccccc3)c2)C1(C)C (stereo unspecified)
7. CC1C/C=C/C=C/C=C/C=C/C(O[C@@H]2O[C@H](C)[C@@H](O)[C@H](N)[C@@H]2O)CC2OC(O)(CC(O)CC3OC3/C=C/C(=O)O1)CC(O)C2C(=O)O (stereo partly specified)
8. COc1c(C)c2c(c(O)c1C/C=C(\C)CCC(=O)O)C(=O)OC2

[0.969, 1, 0.975, 0.0596, 0.884, 1.01, 1, 0.621]

Would you mind listing normalized growth for each of the following compounds?
1. CC(C)(S)[C@@H](N)C(=O)O
2. Cc1ccc(C(=O)c2ccc(CC(=O)O)n2C)cc1
3. CC(=O)O[C@]1(C)CC[C@@]23CC1C(C)(C)[C@@H]2CC[C@H]3C
4. CC1OC(O[C@H]2/C=C/C=C/C=C/C=C/C=C/C=C/C=C/[C@H](C)[C@@H](O)[C@@H](C)[C@H](C)OC(=O)CC(O)CC(O)CCC(O)C(O)CC(O)C[C@]3(O)C[C@H](O)C(C(=O)O)C(C2)O3)C(O)[C@H](N)C1O (stereo partly specified)
5. CC12CCC3C(=CCc4cc(O)ccc43)C1CCC2=O (stereo unspecified)
6. COC(=O)[C@@H]1OC(=O)C2OC23[C@@]1(C)CCC1[C@@]2(C)CCC(=O)C(C)(C)C2C[C@@H](OC(C)=O)[C@]13C (stereo partly specified)
7. COC(=O)[C@@H]1OC(=O)C2OC23[C@@]1(C)CCC1[C@]2(C)C(C[C@@H](O)[C@]13C)C(C)(C)[C@H](OC(C)=O)C[C@@H]2OC(C)=O (stereo partly specified)

1. 1.01
2. 1.01
3. 0.98
4. 0.995
5. 0.998
6. 1.01
7. 1

Would you mind listing normalized growth for each of the following compounds?
1. CC(=O)OC/C=C(\C)CC/C=C(\C)CC/C=C(\C)CC/C=C(\C)CC/C=C(\C)CC/C=C(\C)CC/C=C(\C)CC/C=C(\C)CCC=C(C)C
2. NC(C(=O)O)C(O)C(=O)O (stereo unspecified)
3. CN[C@@H]1C(OC2[C@H](O[C@H]3[C@H](O)[C@@H](O)[C@H](N=C(N)N)[C@@H](O)[C@@H]3N=C(N)N)OC(C)[C@]2(O)CO)OC(CO)C(O)C1O (stereo partly specified)
4. Clc1ccc(C(c2ccccc2Cl)C(Cl)Cl)cc1 (stereo unspecified)

1. 0.977
2. 0.98
3. 0.997
4. 0.94

Would you mind listing normalized growth for each of the following compounds?
1. COP(=S)(OC)Oc1ccc(Sc2ccc(OP(=S)(OC)OC)cc2)cc1
2. Cc1onc(-c2ccccc2)c1-c1ccc(S(N)(=O)=O)cc1
3. CN(C/C=C/C#CC(C)(C)C)Cc1cccc2ccccc12
4. Cc1cc(/C=C/c2ccc3cc(N(C)C)ccc3[n+]2C)c(C)n1-c1ccccc1
5. COc1cc(NS(C)(=O)=O)ccc1Cc1c2ccccc2nc2ccccc12
6. CC12CCCCC1(Br)[N+](=O)N2[O-] (stereo unspecified)
7. Cc1nnc(NS(=O)(=O)c2ccc(N)cc2)s1

1: 0.999; 2: 1; 3: 0.334; 4: 0.954; 5: 0.971; 6: 0.997; 7: 0.986

Item under review: Clc1ccc(C(Cn2ccnc2)OCc2ccsc2Cl)c(Cl)c1 (stereo unspecified) . Reported normalized growth?
0.058
